# Target entity: T1, human TROP2-his protein (human, UniProt P09758 27-274)
# T1 construct: Biotin-labelled in the ELISAs, unlabelled analyte in Biacore; also called biotin-labeled human TROP2-his protein; biotin human Trop2-his
# T1 sequence: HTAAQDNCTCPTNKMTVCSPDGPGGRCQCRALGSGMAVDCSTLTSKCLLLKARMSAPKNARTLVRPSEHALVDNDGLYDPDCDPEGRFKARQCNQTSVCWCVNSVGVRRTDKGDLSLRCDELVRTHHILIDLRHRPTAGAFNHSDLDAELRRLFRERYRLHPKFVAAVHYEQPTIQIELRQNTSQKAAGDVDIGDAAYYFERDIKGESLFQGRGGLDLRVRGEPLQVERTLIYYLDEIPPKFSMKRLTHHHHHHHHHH
# Test name: SPR Biacore T200, supernatant antibody captured on anti-human IgG CM5 chip, 40 nM human TROP2-his
Threshold check on koff: strictly below 0.0002 s⁻¹ is MET; on or above 0.0002 s⁻¹ is NOT MET.

Here are 3 binders together with their reported answers.
QUERY: Regarding huA1E4F7D4-V9 (antibody, human IgG1, kappa, V domains shown, Positions of the X residues are given in the claims; Tested as cell supernatant) VH: QVQLVQSGAEVKKPGASVKVSCKASGYSFTTHWIHWVRQAPGQGLEWIGTIFPSNAYAVYNQKFRDRVTMTADRSISTAYIELSRLRSDDTAVYYCARASYFDYWGQGTTVTVSS VL: EIVLTQSPATLSLSPGERATLSCRASQNIGTSIHWFQQKPGQSPRLLIKYASESISGIPSRFSGSGSGTDFTLTISSLEPEDFAVYYCQHSHSWPFTFGQGTKLEIKR , kindly confirm whether its koff is beneath 0.0002 s⁻¹.
RESULT: MET

QUERY: Regarding huA1E4F7D4-V11 (antibody, human IgG1, kappa, V domains shown, Positions of the X residues are given in the claims; Tested as cell supernatant) VH: QVQLVQSGAEVKKPGASVKVSCKASGYSFTTHWIHWVRQAPGQGLEWIGTIFPSNAYAVYNQKFRDRATMTADTSISTAYIELSRLRSDDTAVYYCARASYFDYWGQGTTVTVSS VL: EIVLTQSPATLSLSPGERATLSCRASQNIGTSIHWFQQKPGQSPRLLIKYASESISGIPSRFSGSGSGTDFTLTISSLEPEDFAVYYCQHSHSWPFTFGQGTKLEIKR , kindly confirm whether its koff is beneath 0.0002 s⁻¹.
RESULT: MET

QUERY: Regarding huA1E4F7D4-V18 (antibody, human IgG1, kappa, V domains shown, Positions of the X residues are given in the claims; Tested as cell supernatant) VH: QVQLVQSGAEVKKPGASVKVSCKASGYTFTTHWIHWVRQAPGQGLEWIGTIFPSNAYAVYNQKFRDRATMTADRSISTAYIELSRLRSDDTAVYYCARASYFDYWGQGTTVTVSS VL: EIVLTQSPATLSLSPGERATLSCRASQNIGTSIHWFQQKPGGSPRLLIYYASESISGIPSRFSGSGSGTDFTLTISSLEPEDFAVYYCQHSHSWPFTFGQGTKLEIKR , kindly confirm whether its koff is beneath 0.0002 s⁻¹.
RESULT: NOT MET

Continuing:
QUERY: Regarding huA1E4F7D4-V12 (antibody, human IgG1, kappa, V domains shown, Positions of the X residues are given in the claims; Tested as cell supernatant) VH: QVQLVQSGAEVKKPGASVKVSCKASGYSFTTHWIHWVRQAPGQGLEWIGTIFPSNAYAVYNQKFRDRATMTADRSISTAYIELSRLRSDDTAVYYCARASYFDYWGQGTTVTVSS VL: EIVLTQSPATLSLSPGERATLSCRASQNIGTSIHWFQQKPGGAPRLLIKYASESISGIPSRFSGSGSGTDFTLTISSLEPEDFAVYYCQHSHSWPFTFGQGTKLEIKR , kindly confirm whether its koff is beneath 0.0002 s⁻¹.
RESULT: MET
